Measured z-score by item
# measurement-description: basal MM1S mitochondrial membrane potential changes, profiling panel, cell-based, JC-1 fluorescence, 24 h, 100 nL compound (AID 1170); note: test concentration not given here
# stated-conditions: higher = more signal
metric: z-score

compound	metric	measured-value
[N-]=[N+]=NCc1ccccc1[C@@H]1OC(c2ccc(OCCCO)cc2)=N[C@]1(Cc1ccccc1)C(=O)NCCN1CCOCC1	z-score	0.424
O=C1C2C=CC(C(O)c3ccc4c(c3)OCO4)N(Nc3ccccc3)C2C(=O)N1c1ccccc1 (configuration not stated)	z-score	-0.636
CCCCCCCCCCC(O)C1C=CC2C(=O)N(C)C(=O)C2N1Nc1cc(OC)c(OC)c(OC)c1 (configuration not stated)	z-score	-2.12
COCCOC(=O)N1C(=O)[C@@]2(c3ccccc31)[C@H](c1ccccc1OCCO)N1[C@H](c3ccccc3)[C@H](c3ccccc3)OC(=O)[C@H]1[C@@H]2C(N)=O	z-score	-1.21
C=CCC(OC(C)=O)[C@@H]1[C@@H](N(Cc2ccc(-c3cccc(C(F)(F)F)c3)o2)C(=O)c2ccc(C)cc2)c2cc(OCCCO)ccc2N1C(=O)Cc1ccc(OC)cc1 (some centres not stated)	z-score	-0.83
C#C[C@@H](CC)O[Si](C#CCCCC#N)(C(C)C)C(C)C	z-score	-1.73
[N-]=[N+]=NCc1ccccc1[C@H]1OC(c2ccc(OCCCO)cc2)=N[C@@]1(CCS(=O)(=O)c1ccccc1)C(=O)NCc1ccccc1	z-score	-0.531

====

# measurement-description: Plasmodium falciparum growth inhibition, primary screen, strain 3D7, DAPI fluorescence, 100 nL (AID 1184);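 note: parasites grown inside human red blood cells in medium with human serum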
# stated-conditions: P. falciparum 3D7 growth, 3 d, higher = more signal
z-score of -0.6 or higher: Yes. Under -0.6: No.

compound	assigned-label
C=C[C@@H](OC)[C@H](OC(=O)Nc1ccc(SC)cc1)c1ccc(OCCO)cc1	Yes
CCOC(=O)C[C@H]1[C@H](OC(=O)c2ccc(-c3ccccc3)cc2)[C@@H](NC(=O)Cc2ccc(OC)cc2)c2cc(OCCCO)ccc2N1C(=O)Cc1ccc(OC)cc1	No
O=C1C2C=CC(C(O)c3ccco3)N(Nc3ccccc3)C2C(=O)N1c1ccccc1 (centres undefined)	Yes
CN1C(=O)C2C=CC(C(O)c3cc(C(F)(F)F)cc(C(F)(F)F)c3)N(Nc3ccccc3)C2C1=O (centres undefined)	Yes
C=C(CCCC)C(=O)CC[C@H](OC(C)=O)c1ccc(OCCO)cc1	No
COC(=O)[C@@]1(Cc2ccc(OC)cc2)[C@H]2c3cc(C(=O)N4CCCC4)n(Cc4ccc(S(C)(=O)=O)cc4)c3C[C@H]2CN1C(=O)c1ccccc1	No
CCOC(=O)C=Cc1ccccc1O	No
CN1C(=O)C2C=CC(C(O)c3cc(C(F)(F)F)cc(C(F)(F)F)c3)N(NC(=O)OC(C)(C)C)C2C1=O (centres undefined)	No
CCOC(=O)C1=CCC(c2ccccc2)N(S(=O)(=O)c2ccc([N+](=O)[O-])cc2)C1 (centres undefined)	Yes
CO[C@H]1O[C@H](CO)[C@@H](OC(=O)CCc2ccccc2)[C@H](OC(=O)c2cc3ccccc3[nH]2)[C@H]1OC(=O)c1cc2ccccc2[nH]1	No
CCOC(=O)C[C@H]1[C@H](OC(=O)c2ccccc2-c2ccccc2)[C@@H](NC(=O)c2ccc3ccccc3n2)c2cc(OCCCO)ccc2N1C(=O)c1ccccc1	No
O=C(CS)NCCCCCNC(=O)[C@@H]1C[C@@H]2C(=O)N[C@@H](Cc3ccccc3)C(=O)N2[C@@H]1c1cccc(OCCO)c1	Yes
[N-]=[N+]=NCc1ccccc1[C@@H]1OC(c2ccc(OCCCO)cc2)=N[C@]1(Cc1ccccc1N=[N+]=[N-])C(=O)N1CCCCC1	No
C[C@]1(C(=O)NCCN2CCOCC2)c2ccccc2C(=O)N(Cc2cc(F)cc(C(F)(F)F)c2)[C@H]1c1ccc(CO)cc1	No
[N-]=[N+]=NCc1ccccc1[C@@H]1OC(c2ccc(OCCCO)cc2)=N[C@]1(Cc1ccccc1)C(=O)NCCN1CCOCC1	No
C=CCNC(=O)[C@@H]1[C@H]2C(=O)O[C@H](c3ccccc3)[C@H](c3ccccc3)N2[C@H](c2ccc(O)cc2)[C@@]12C(=O)Nc1ccc(C#CCC(C(=O)OC)C(=O)OC)cc12	No
C[C@]1(C(=O)O)c2ccccc2C(=O)N(Cc2ccc(OC(F)(F)F)cc2)[C@H]1c1ccc(CO)cc1	Yes
CN1C(=O)C2C=CC(C(O)c3ccc(F)cc3)N(NC(=O)OC(C)(C)C)C2C1=O (centres undefined)	Yes
O=C(NCCN1CCOCC1)[C@@H]1c2ccccc2C(=O)N(Cc2ccccc2)[C@H]1c1ccc(CO)cc1	Yes
C=CCC(OC(C)=O)[C@@H]1[C@@H](N(Cc2ccc(-c3cccc(C(F)(F)F)c3)o2)C(=O)c2ccc(C)cc2)c2cc(OCCCO)ccc2N1C(=O)Cc1ccc(OC)cc1 (some centres undefined)	Yes
CC(C)C[C@@H]1NC(=O)[C@H]2C[C@@H](C(=O)NCCCCCN)[C@@H](c3cccc(OCCO)c3)N2C1=O	Yes
COc1ccc(CCNC(=O)[C@@]2(Cc3ccccc3I)c3ccccc3C(=O)N(Cc3ccccc3Cl)[C@H]2c2ccc(CO)cc2)cc1	No
C=C(C(=O)CC[C@@H](OC(=O)c1ccccc1-c1ccccc1C(=O)O)c1ccccc1OCCO)C(C)C	No
C=CCN1C(=O)[C@]2(O[C@H](CCO)[C@@H]([Si](C)(C)c3ccc(OC)cc3)[C@@H]2C)c2cc(N3C(=O)COc4ccccc43)ccc21	No
C=C[C@@H](C)[C@@H](OC(=O)Nc1ccc(SC)cc1)c1ccc(OCCO)cc1	Yes
CCCCC(=C=CC[C@H](O)c1ccc(OCCO)cc1)C[C@H](O)COCc1ccccc1	No
O=C1c2ccccc2[C@](Cc2ccccc2I)(C(=O)NC2CC2)[C@H](c2ccc(CO)cc2)N1Cc1ccccc1C(F)(F)F	No
CO[C@H]1O[C@H](CO)[C@@H](OC(=O)Nc2ccc(C#N)cc2)[C@@H]2OC(=O)[C@H](Cc3cccc(Br)c3)C/C=C/C[C@@H](Cc3cccc(Br)c3)C(=O)O[C@@H]12	No

====

# target-or-system: Dihydroorotate dehydrogenase (quinone), mitochondrial (Plasmodium falciparum (isolate 3D7)) (UniProt Q08210)
# Sequence (Q08210 whole entry, looked up): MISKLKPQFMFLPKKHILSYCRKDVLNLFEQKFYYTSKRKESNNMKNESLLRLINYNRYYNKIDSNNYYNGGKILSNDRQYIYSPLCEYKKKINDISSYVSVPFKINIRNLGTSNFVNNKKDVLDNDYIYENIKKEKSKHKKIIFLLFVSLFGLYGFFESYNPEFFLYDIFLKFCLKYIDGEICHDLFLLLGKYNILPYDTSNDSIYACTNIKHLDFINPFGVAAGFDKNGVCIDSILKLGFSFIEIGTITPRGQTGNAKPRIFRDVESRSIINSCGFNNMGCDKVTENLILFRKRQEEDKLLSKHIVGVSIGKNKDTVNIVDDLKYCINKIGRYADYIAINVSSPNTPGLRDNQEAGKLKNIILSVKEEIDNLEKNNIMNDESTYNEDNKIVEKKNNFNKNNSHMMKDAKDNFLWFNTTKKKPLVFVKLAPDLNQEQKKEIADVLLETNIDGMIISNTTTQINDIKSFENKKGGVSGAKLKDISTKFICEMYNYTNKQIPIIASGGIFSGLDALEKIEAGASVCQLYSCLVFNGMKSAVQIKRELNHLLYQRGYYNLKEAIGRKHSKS
# measurement-description: PfDHODH enzyme inhibitors, primary screen, biochemical, C-terminal His tag, absorbance 600 nm (AID 1175);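 note: recombinant parasite enzyme with a five histidine tag at its C terminus; test concentration not given here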
# stated-conditions: DCIP absorbance 600 nm, higher = more signal, called active from +8 up or from −8 down
composite z-score of -0.9 or higher: met. Under -0.9: not met.

compound	assigned-label
COc1ccc(C(O)C2C=CC3C(=O)N(c4ccccc4)C(=O)C3N2Nc2ccc(C(C)C)cc2)c2ccccc12 (stereo not drawn)	met
CC(C)OC(=O)CC(=O)CC(O)c1ccc([N+](=O)[O-])cc1 (stereo not drawn)	not met
COc1ccc([Si](C)(C)[C@@H]2[C@@H](CCn3cc([C@H](O)c4ccccc4)nn3)O[C@]3(C(=O)N(Cc4cccc(N5C(=O)c6cccc7cccc5c67)c4)c4ccccc43)[C@H]2C)cc1	met
CCOC(=O)C=Cc1ccccc1O	met
[N-]=[N+]=Nc1ccccc1C[C@]1(C(=O)O)N=C(c2ccc(OCCCO)cc2)O[C@H]1c1ccccc1N=[N+]=[N-]	met
O=C1[C@@]23C=C(Br)[C@H](C[C@@H]2COC3)[C@@]12CO2	met
CC(=O)N1CC(C(O)C2C=CC3C(=O)NC(=O)C3N2Nc2ccc(Cl)cc2Cl)c2ccccc21 (stereo not drawn)	met
CC(C)CNC(=O)[C@@]1(C)c2ccccc2C(=O)N(Cc2cc(C(F)(F)F)cc(C(F)(F)F)c2)[C@H]1c1ccc(CO)cc1	met
COCCOC(=O)N1C(=O)[C@@]2(c3cc(C#Cc4ccc(OC)cc4)ccc31)[C@H](c1ccc(OCCO)cc1)N1[C@H](c3ccccc3)[C@H](c3ccccc3)OC(=O)[C@H]1[C@@H]2C(=O)Nc1nc2ccccc2s1	not met
CCN(CC)c1ccc(N2CC=CC34O[C@@H]5C=CCCOC(=O)C5[C@H]3C(=O)N(CCO)[C@@H]4C2=O)cc1 (stereo partly drawn)	not met
CC(=O)NCCCC[C@@H]1NC(=O)[C@H]2C[C@@H](C(=O)NCCCCCNC(=O)CS)[C@@H](c3cccc(OCCO)c3)N2C1=O	met
CO[C@H]1O[C@H](CO)[C@@H](OC(=O)c2ccc(Br)cc2)[C@@H]2OC(=O)[C@H](Cc3ccccc3)C/C=C/C[C@@H](Cc3ccccc3)C(=O)O[C@@H]12	met
C=C(COC)/C(=C/C[C@@H](OC(=O)c1ccncc1)c1ccccc1OCCO)c1cc(C(=O)OC)ccc1OC	not met
O=C1N[C@@H](Cc2ccccc2)C(=O)N2[C@@H]1C[C@@H](C(=O)O)[C@H]2c1ccc(O)cc1	met
CN1C(=O)C2C=CC(C(O)c3cc(C(F)(F)F)cc(C(F)(F)F)c3)N(Nc3ccccc3)C2C1=O (stereo not drawn)	met
CC(C)C[C@@H]1NC(=O)[C@H]2C[C@@H](C(=O)NCCCCCN)[C@@H](c3cccc(OCCO)c3)N2C1=O	not met
CCCCC(=C=CC[C@H](O)c1ccc(OCCO)cc1)C[C@H](O)COCc1ccccc1	met
Cc1ccc([C@H]2C(C(=O)O)=C[C@@H](C(C)(C)C)N2S(=O)(=O)c2ccc(C)cc2)cc1	met
COCCOC(=O)N1C(=O)[C@@]2(c3cc(C#CCNC(N)=O)ccc31)[C@H](c1ccc(OCCO)cc1)N1[C@H](c3ccccc3)[C@H](c3ccccc3)OC(=O)[C@H]1[C@@H]2C(=O)NC[C@H](O)c1ccccc1	not met
CO[C@H]1O[C@H](CO)[C@@H](OC(=O)Nc2cccc(F)c2)[C@H](OC(=O)Nc2ccccc2-c2ccccc2)[C@H]1OC(=O)Nc1ccccc1-c1ccccc1	met
CN1C=C(C(=O)OCCS(C)(=O)=O)C(C(=O)OCCS(C)(=O)=O)=CC(c2ccc(CO)cc2)=CC1c1cccs1 (stereo not drawn)	not met
CCOC(=O)C[C@H]1[C@H](OC(=O)c2ccccc2-c2ccccc2)[C@@H](NC(=O)c2ccccc2)c2cc(OCCCO)ccc2N1C(=O)c1ccccc1	met
CCC(CC)C(O)C1C=CC2C(=O)N(c3ccccc3)C(=O)C2N1Nc1ccc([N+](=O)[O-])cc1 (stereo not drawn)	met
C[C@]1(C(=O)O)c2ccccc2C(=O)N(Cc2ccc(OC(F)(F)F)cc2)[C@H]1c1ccc(CO)cc1	met
CN(C)C(=O)[C@]1(CCS(=O)(=O)c2ccccc2)N=C(c2ccc(OCCCO)cc2)O[C@@H]1c1ccccc1	met
COCC1C2CC[C@H]3C(OCc4ccc(OC)cc4)OC[C@]4(C)[C@H]3C2=C(CN4C(=O)OC(C)(C)C)[C@H](C)C1COC (stereo partly drawn)	met
COCCOC(=O)N1C(=O)[C@@]2(c3cc(C#CCCO)ccc31)[C@H](C(N)=O)[C@H]1C(=O)O[C@H](c3ccccc3)[C@H](c3ccccc3)N1[C@@H]2c1ccc(OCCO)cc1	met
COCCOC(=O)N1C(=O)[C@@]2(c3cc(C#CCC(C(=O)OC)C(=O)OC)ccc31)[C@H](c1ccc(OCCO)cc1)N1[C@H](c3ccccc3)[C@H](c3ccccc3)OC(=O)[C@H]1[C@@H]2C(=O)Nc1nc2ccccc2s1	not met
